molecular target: human CYP2D6 (Homo sapiens)
Sequence (P10635 whole entry): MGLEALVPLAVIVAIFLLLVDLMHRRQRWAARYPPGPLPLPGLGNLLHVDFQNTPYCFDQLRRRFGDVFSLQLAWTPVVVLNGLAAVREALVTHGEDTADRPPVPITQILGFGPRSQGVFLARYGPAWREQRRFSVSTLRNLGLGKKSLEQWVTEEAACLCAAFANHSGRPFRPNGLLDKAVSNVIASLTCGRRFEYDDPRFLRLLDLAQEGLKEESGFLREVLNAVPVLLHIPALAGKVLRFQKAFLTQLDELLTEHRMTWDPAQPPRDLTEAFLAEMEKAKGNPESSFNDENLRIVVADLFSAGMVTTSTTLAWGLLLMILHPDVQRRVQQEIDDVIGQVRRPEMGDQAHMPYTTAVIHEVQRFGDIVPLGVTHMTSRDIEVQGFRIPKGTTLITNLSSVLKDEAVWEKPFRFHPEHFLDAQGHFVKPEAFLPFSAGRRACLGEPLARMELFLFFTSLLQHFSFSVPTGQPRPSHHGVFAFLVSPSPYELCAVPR
Parameter Measured: CYP2D6 IC50 (half-maximal inhibitory concentration)

{"columns": ["Molecule", "Reading"],
 "data": [
  ["O=C(Nc1ccccc1SSc1ccccc1NC(=O)c1ccccc1)c1ccccc1 [2,2'-Dibenzoylaminodiphenyl disulfide]", "37.5 ± 45.35 (15 ± 47) µM"],
  ["O=C1c2ccccc2C(=O)c2ccccc21", "Inactive"],
  ["O[Si](c1ccccc1)(c1ccccc1)c1ccccc1", "Inactive"],
  ["Brc1c2ccccc2cc2ccccc12", "Inactive"],
  ["O=C1c2ccccc2C(=O)c2c(Cl)cccc21", "Inactive"],
  ["Nc1c(Br)cc(Br)c2c1C(=O)c1ccccc1C2=O", "Inactive"],
  ["Brc1cc2ccccc2c2ccccc12", "Inactive"],
  ["C=CC(=O)OCCn1c(=O)n(CCOC(=O)C=C)c(=O)n(CCOC(=O)C=C)c1=O", "Inactive"],
  ["NS(=O)(=O)C(F)(F)C(F)(F)C(F)(F)C(F)(F)C(F)(F)C(F)(F)C(F)(F)C(F)(F)F", "Inactive"]
]}
